Consider the following compounds; for each one, report its log10(CC50 at 24 h).
- Assay Comment: Cytotoxicity against mouse RAW264.7 cells after 24 hrs by ATPlite assay
- Assay type: cell-based
- Details: read-out: ED50
Record value = log10 of CC50 at 24 h given in µM.

Notebook: CC[C@H](C)C(=O)c1c(O)c(C)c2oc3c(C)c(O)c(C(=O)CC(C)C)c(O)c3c2c1O , log10(CC50 at 24 h) read as 0.15

Notebook: CC[C@H](C)C(=O)c1c(O)c(C)c2oc3c(C)c(O)c(C(=O)C(C)C)c(O)c3c2c1O , log10(CC50 at 24 h) read as 0.81

Notebook: CC[C@H](C)C(=O)c1c(O)c(C)c(O)c2c1oc1c(C(=O)C(C)C)c(O)c(C)c(O)c12 , log10(CC50 at 24 h) read as 1.25

Notebook: Cc1c(O)c(C(=O)C(C)C)c2oc3c(C(=O)C(C)C)c(O)c(C)c(O)c3c2c1O , log10(CC50 at 24 h) read as 2.15

Notebook: CC[C@H](C)C(=O)c1c(O)c(C)c(O)c2c1oc1c(C(=O)[C@@H](C)CC)c(O)c(C)c(O)c12 , log10(CC50 at 24 h) read as 0.83

Notebook: Cc1c(O)c(C(=O)C(C)C)c(O)c2c1oc1c(C)c(O)c(C(=O)C(C)C)c(O)c12 , log10(CC50 at 24 h) read as 1.08

The measurements presented in this section are drawn from ChEMBL document CHEMBL2146371.
